TEST SUMMARY: Drug concentration in male ICR mouse plasma at 1 mg/kg, iv measured after 60 mins by LC-MS/MS analysis
Assay type: ADME, organism-based
ASSAY METRIC: concentration at 1 h (ng/mL)
Form entry: value (ng/mL) — number only.

For the compound `O=C(NO)c1cc(-c2ccc(Br)cc2)n(-c2ccc(Cl)cc2)n1` , what concentration at 1 h is on record?
55.6

---

TEST SUMMARY: AUC (0 to infinity) in male ICR mouse at 10 mg/kg, ip measured upto 480 mins by LC-MS/MS analysis
Assay type: ADME, organism-based
CONDITION: in vivo
ASSAY METRIC: AUC(0-inf) (µg·h/mL)
Express it in µg·h/mL; write the number only.

Need AUC(0-inf) of `O=C(NO)c1cc(-c2ccc(Br)cc2)n(-c2ccc(Cl)cc2)n1` , thanks.
3.65

---

TEST SUMMARY: Metabolic stability in human liver microsomes assessed as intrinsic clearance at 1 uM incubated for 60 mins by LC-MS/MS analysis
Format: ADME, Microsome
CONDITION: read-out: CLH
ASSAY METRIC: microsomal CLint at 1 µM (µL/min/mg)
Note: unit µL/min/mg is implicit; provide only the numeric part.

# get_value(readout='microsomal CLint at 1 µM', item= `O=C(NO)c1cc(-c2ccc(Br)cc2)n(-c2ccc(Cl)cc2)n1` )
15.6

---

TEST SUMMARY: Cmax in male ICR mouse at 10 mg/kg, ip measured upto 480 mins by LC-MS/MS analysis
Type: ADME, organism-based
CONDITION: in vivo
ASSAY METRIC: Cmax (µg/mL)
Answer with a number only, understood to be in µg/mL.

Consider the compound shown here: `O=C(NO)c1cc(-c2ccc(Br)cc2)n(-c2ccc(Cl)cc2)n1` What is its recorded Cmax?
4.2

---

TEST SUMMARY: Tmax in male ICR mouse at 1 mg/kg, iv measured upto 480 mins by LC-MS/MS analysis
Type: ADME, organism-based
CONDITION: in vivo
ASSAY METRIC: Tmax (min)
Respond numerically; units are min and should not be typed.

Please report the recorded Tmax for `O=C(NO)c1cc(-c2ccc(Br)cc2)n(-c2ccc(Cl)cc2)n1` .
15

---

TEST SUMMARY: Ratio of drug concentration in male ICR mouse brain to plasma at 1 mg/kg, iv measured after 60 mins by LC-MS/MS analysis
Format: ADME, organism-based
CONDITION: read-out: BPR
ASSAY METRIC: Kp at 1 h
Answer with a bare number; do not write a unit.

# query: Kp at 1 h of entry `O=C(NO)c1cc(-c2ccc(Br)cc2)n(-c2ccc(Cl)cc2)n1`
0.57

---

TEST SUMMARY: Half life in male ICR mouse at 10 mg/kg, ip measured upto 480 mins by LC-MS/MS analysis
Format: ADME, organism-based
CONDITION: in vivo
ASSAY METRIC: half-life (min)
Expressed in min, but write only the number.

For `O=C(NO)c1cc(-c2ccc(Br)cc2)n(-c2ccc(Cl)cc2)n1` , what is its reported half-life?
50.4

---

TEST SUMMARY: Drug concentration in male ICR mouse brain at 1 mg/kg, iv measured after 30 mins by LC-MS/MS analysis
Type: ADME, organism-based
CONDITION: read-out: Ct
ASSAY METRIC: concentration at 0.5 h

Fill in: concentration at 0.5 h of `O=C(NO)c1cc(-c2ccc(Br)cc2)n(-c2ccc(Cl)cc2)n1` is ___
83.1 ng/mL

---

TEST SUMMARY: Cmax in male ICR mouse at 1 mg/kg, iv measured upto 480 mins by LC-MS/MS analysis
Format: ADME, organism-based
CONDITION: in vivo
ASSAY METRIC: Cmax (ng/mL)
Numeric answer only, unit ng/mL assumed.

Please give the measured Cmax for this molecule: `O=C(NO)c1cc(-c2ccc(Br)cc2)n(-c2ccc(Cl)cc2)n1`
2590

---

TEST SUMMARY: Bioavailability in male ICR mouse at 1 mg/kg, iv measured upto 480 mins by LC-MS/MS analysis
Assay type: ADME, organism-based
CONDITION: in vivo
ASSAY METRIC: bioavailability (%)
Number only, in %; omit the unit.

Please look up its bioavailability: `O=C(NO)c1cc(-c2ccc(Br)cc2)n(-c2ccc(Cl)cc2)n1`
39.6
